Below is a list of entries, each paired with its recorded Kill in % after 1d value.
Tested on: green peach aphid (Myzus persicae)
TEST_SUMMARY: Myzus persicae test (spray on infested cabbage leaves)
Format: in vivo
CONDITIONS: 4 g/ha, single active compound
The reply should contain only the number, in %.

# example entries with known answers
{"COMPOUND": "O=C1C=C(N(CCF)Cc2ccc(Cl)nc2)CO1", "OBSERVATION_TYPE": "Kill in % after 1d", "ENDPOINT_VALUE": 30}
{"COMPOUND": "COc1cccc(C(=O)NN(C(=O)c2cc(C)cc(C)c2)C(C)(C)C)c1C [methoxyfenozide, reference compound]", "OBSERVATION_TYPE": "Kill in % after 1d", "ENDPOINT_VALUE": 0}
{"COMPOUND": "O=C(NC(=O)c1ccccc1Cl)Nc1ccc(OC(F)(F)F)cc1 [triflumuron, reference compound]", "OBSERVATION_TYPE": "Kill in % after 1d", "ENDPOINT_VALUE": 0}

Task: Under green peach aphid (Myzus persicae): report Kill in % after 1d of O=C(NC(=O)c1c(F)cccc1F)Nc1ccc(Oc2ccc(C(F)(F)F)cc2Cl)cc1F [flufenoxuron, reference compound] .
Output: 0

Task: # lookup: green peach aphid (Myzus persicae) Kill in % after 1d, key = O=C(NC(=O)c1c(F)cccc1F)Nc1cc(Cl)c(OC(F)(F)C(F)C(F)(F)F)cc1Cl (centres unmarked) [lufenuron, reference compound]
Output: 0
